These entries and their values trace back to PubChem BioAssay.

- study_system: Neuropeptide Y receptor type 2 (Homo sapiens) (UniProt P49146)
- Sequence (P49146 whole entry, looked up): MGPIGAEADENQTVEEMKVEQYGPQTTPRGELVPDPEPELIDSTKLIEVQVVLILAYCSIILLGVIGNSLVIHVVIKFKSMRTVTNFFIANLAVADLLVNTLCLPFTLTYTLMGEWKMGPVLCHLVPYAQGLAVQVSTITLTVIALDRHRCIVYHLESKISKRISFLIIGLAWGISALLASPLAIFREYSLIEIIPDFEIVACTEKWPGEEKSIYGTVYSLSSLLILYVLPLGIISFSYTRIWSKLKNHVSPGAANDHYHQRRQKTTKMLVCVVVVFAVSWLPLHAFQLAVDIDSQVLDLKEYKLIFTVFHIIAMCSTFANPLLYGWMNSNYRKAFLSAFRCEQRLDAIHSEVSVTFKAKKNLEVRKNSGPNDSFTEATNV
- assay_method_text: NPY-Y2 direct agonists, counter-screen for NPY-Y2 potentiator project, cell-based, fluorescence (AID 1710);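 further: cells stimulated by isoproterenol with no NPY added so direct agonism is tested; 0% = DMSO with isoproterenol alone and 100% = NPY at EC100 plus isoproterenol; agonism lowers probe fluorescence through less cAMP and CNG channel opening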
- condition_description: HEK293 Y2/CNGC cells, membrane potential fluorescence, agonist mode; at 3.6 µM; hits give high values
The other results are listed elsewhere or left out.
attribute_measured: activation (%)

compound	study_system	measured_number
O=C(Nc1sc2c(c1-c1nc3ccccc3[nH]1)CCCC2)C1CC1	Neuropeptide Y receptor type 2 (Homo sapiens) (UniProt P49146)	24.5
Oc1c(Cl)cc(Cl)c(Cl)c1Cc1c(O)c(Cl)cc(Cl)c1Cl	Neuropeptide Y receptor type 2 (Homo sapiens) (UniProt P49146)	24.1
O=C(NCc1ccccc1)c1ccc(S(=O)(=O)Nc2cccc(C(F)(F)F)c2)cc1	Neuropeptide Y receptor type 2 (Homo sapiens) (UniProt P49146)	19.8
CN(C)c1ccc(CNC2C3CC4CC(C3)CC2C4)cc1 (stereo unspecified)	Neuropeptide Y receptor type 2 (Homo sapiens) (UniProt P49146)	-2.65
CC(Nc1ccccc1)c1cccnc1 (stereo unspecified)	Neuropeptide Y receptor type 2 (Homo sapiens) (UniProt P49146)	17.8
O=C(NC(Nc1nc2ccc([N+](=O)[O-])cc2s1)(C(F)(F)F)C(F)(F)F)c1ccccc1	Neuropeptide Y receptor type 2 (Homo sapiens) (UniProt P49146)	22.1
O=C1NC(c2ccc(-c3ccccc3[N+](=O)[O-])o2)C(C(=O)c2ccc(Cl)cc2)C(O)(C(F)(F)F)N1 (stereo unspecified)	Neuropeptide Y receptor type 2 (Homo sapiens) (UniProt P49146)	32.6
CC(=O)c1ccc2c(c1)OCCOCCOc1ccc(C(C)=O)cc1OCCOCCO2	Neuropeptide Y receptor type 2 (Homo sapiens) (UniProt P49146)	26.6
N/C(=N\S(=O)(=O)c1cc(C(F)(F)F)cc(C(F)(F)F)c1)c1cccs1	Neuropeptide Y receptor type 2 (Homo sapiens) (UniProt P49146)	23.1
Cc1ccc(CCNC(=O)C2CCN(S(=O)(=O)N3CCCC3)CC2)cc1	Neuropeptide Y receptor type 2 (Homo sapiens) (UniProt P49146)	-8.83
CN(Cc1ccccc1)C(=O)CCNC(=O)Cn1cnc2ccccc2c1=O	Neuropeptide Y receptor type 2 (Homo sapiens) (UniProt P49146)	18.3

====

- study_system: Steroidogenic factor 1 (Homo sapiens)
- assay_method_text: SF1 (NR5A1) inverse agonists, counter-screen for LRH-1 inverse agonist project, cell-based, luminescence, high throughput (AID 651614);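 further: cells cotransfected with StAR promoter reporter and SF1 expression vector; 0% = vehicle on cells with receptor and 100% = vehicle on cells lacking receptor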
- condition_description: cell-based SF1 luciferase reporter, at 3.6 µM, hits give high values
Measured inhibition of individual entries

molecule_smiles	inhibition / %
CN(C)c1ccc(C=c2c3ccccc3n3c2c2ccccc2[n+]3C)cc1	90.7
Cc1c(Cl)cccc1NC(=O)CSc1nc2ncc(Cl)cc2[nH]1	58
Cc1onc(-c2cccc(Cl)c2Cl)c1C(=O)O/N=C(\N)c1ccc([N+](=O)[O-])o1	67.3
COc1ccc(NS(=O)(=O)c2ccc(OCC(=O)N3CCOCC3)cc2)cc1Cl	34.3
O=C(NNc1ccc([N+](=O)[O-])cc1[N+](=O)[O-])c1ccco1	60

====

- assay_method_text: VP16 transactivation inhibitors, counter-screen for SRC1 inhibitor project, cell-based, luminescence, high throughput (AID 588824)
- condition_description: cell-based VP16 transactivation luciferase luminescence; at 3.6 µM
Calls of active or inactive are those of the source. Rule as the data show it: active = inhibition above about 25%; inactive = the rest.
Classes used: class 1 = active, class 0 = inactive

compound	assigned_class
O=S(=O)(Nc1ccc2c(c1)OCCO2)c1cccs1	class 0
COc1ccccc1/C=N/NC(=O)CN(C1=NS(=O)(=O)c2ccccc21)c1ccccc1	class 0
Cc1oc(-c2ccc(Cl)cc2)nc1CS(=O)CC(=O)NCCCN1CCN(Cc2ccccc2)CC1 (stereo unspecified)	class 1
COc1ccc(OC)c(Cc2cnc3nc(N)nc(N)c3c2C)c1	class 1
Cc1cc2c(=Cc3ccc(N(C)C)cc3)c3ccccc3n2[n+]1C	class 1
Cc1ccc(S(=O)(=O)NC(CC(C)C)C(=O)NCC(c2ccco2)N2CCCCC2)cc1 (stereo unspecified)	class 0
COC(=O)CCNc1ccc2c(c1)OCCO2	class 0
Cc1ccc(S(=O)(=O)N2CCN(c3ncnc4sccc34)CC2)cc1C	class 0
O=C1CC(N2CCN(Cc3ccccc3)CC2)C(=O)N1 (stereo unspecified)	class 0
Cc1cc(/C=C2\Cc3ccccc3C2=O)c(C)n1-c1ccccc1	class 0
CCN1/C(=C/c2ccc3cccc(C)c3[n+]2CC)Sc2ccccc21	class 1

====

- Tested on: transactivating tegument protein VP16 (Human herpesvirus 1)
- assay_method_text: VP16 transactivation reporter inhibitors, counter-screen for SRC2 inhibitor project, cell-based, luminescence, single concentration (AID 652007)
- condition_description: cell-based VP16 transactivation luciferase reporter, at 8.9 µM, hits give high values
Calls of active or inactive are those of the source. No stated cut-off is given here; in the data, active means inhibition above about 36%; inactive means the rest.
attribute_measured: inhibition

molecule	study_system	result
O=C(Nc1ncc([N+](=O)[O-])s1)c1ccc2c(c1)OCO2	transactivating tegument protein VP16 (Human herpesvirus 1)	-5.69% (inactive)
CC1C/C(=C\c2cccnc2)C(=O)/C(=C/c2cccnc2)C1 (configuration not stated)	transactivating tegument protein VP16 (Human herpesvirus 1)	98% (active)
CN(c1ccc(C(=O)N2CCN(Cc3ccc4c(c3)OCO4)CC2)cc1)S(=O)(=O)c1ccccc1	transactivating tegument protein VP16 (Human herpesvirus 1)	31% (inactive)
CCc1cc(CNC(=O)c2ccc3nc(Cc4ccc(OC)c(OC)c4)oc3c2)on1	transactivating tegument protein VP16 (Human herpesvirus 1)	9.61% (inactive)
CC(=O)/C(N=Nc1ccc2c(c1)OCCO2)=C(\C)O	transactivating tegument protein VP16 (Human herpesvirus 1)	-9.49% (inactive)
Nc1cc2ccncc2c2ccccc12	transactivating tegument protein VP16 (Human herpesvirus 1)	22.2% (inactive)
CCOc1ccc(C(=O)CCC(=O)Nc2cccc(S(=O)(=O)N3CCCCC3)c2)cc1	transactivating tegument protein VP16 (Human herpesvirus 1)	4.55% (inactive)
CCOc1ccccc1-n1c(SCC(=O)Nc2ccccc2C(=O)O)nc2ccccc2c1=O	transactivating tegument protein VP16 (Human herpesvirus 1)	30.9% (inactive)
O=C1Cc2c([nH]c3ccc([N+](=O)[O-])cc23)-c2ccccc2N1	transactivating tegument protein VP16 (Human herpesvirus 1)	23.5% (inactive)
COc1ccc(CCNc2ncnc3cc(OC)c(OC)cc23)cc1OC	transactivating tegument protein VP16 (Human herpesvirus 1)	0.49% (inactive)
CC(=O)NC(c1ccc(C(C)C)cc1)c1ccc2cccnc2c1O (configuration not stated)	transactivating tegument protein VP16 (Human herpesvirus 1)	-23.1% (inactive)
N#Cc1c(N)nc2c(c1N)CC(C(F)(F)F)O2 (configuration not stated)	transactivating tegument protein VP16 (Human herpesvirus 1)	-1.62% (inactive)
Cc1ccc(-c2c3c(nc4sc(C(N)=O)c(N)c24)CCC3)cc1	transactivating tegument protein VP16 (Human herpesvirus 1)	1.89% (inactive)
CC1CCC/C=C/C(=O)c2c(O)cc(O)cc2CC(=O)O1 (configuration not stated)	transactivating tegument protein VP16 (Human herpesvirus 1)	19.4% (inactive)
CCCNC(=O)c1ccc(N2CCC3(CC2)CC(c2cccc(Br)c2)=NO3)c([N+](=O)[O-])c1	transactivating tegument protein VP16 (Human herpesvirus 1)	8% (inactive)
O=C(Nc1ccc2c(c1)OCCO2)C(c1ccnc2ccccc12)N1CCN(c2ccc(C(F)(F)F)cn2)CC1 (configuration not stated)	transactivating tegument protein VP16 (Human herpesvirus 1)	-0.8% (inactive)
COC(=O)c1ccc(CSc2nc3sc(C)c(C)c3c(=O)[nH]2)cc1	transactivating tegument protein VP16 (Human herpesvirus 1)	-20.1% (inactive)
C=CC(=O)N1C/C(=C/c2ccccc2)C(=O)/C(=C\c2ccccc2)C1	transactivating tegument protein VP16 (Human herpesvirus 1)	88.6% (active)
O=C(Nc1nc2ccccc2s1)c1ccc(N2CCCCC2)c([N+](=O)[O-])c1	transactivating tegument protein VP16 (Human herpesvirus 1)	-57.5% (inactive)
C[n+]1cc2c3c(ccc2c2ccc4cc5c(cc4c21)OCO5)OCO3	transactivating tegument protein VP16 (Human herpesvirus 1)	96% (active)
O=C(CCCc1ccccc1)c1ccc2c(c1)OCCO2	transactivating tegument protein VP16 (Human herpesvirus 1)	54.7% (active)
COc1ccc(NC(=O)CSCC(=O)Nc2ccccc2C(=O)N2CCCCC2)cc1	transactivating tegument protein VP16 (Human herpesvirus 1)	-8.77% (inactive)

====

- assay_method_text: GAL4-VP16 reporter modulators, confirmation, counter-screen for NR2E3 agonist project, cell-based, luminescence, CHO-S, high throughput (AID 624379);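 further: luciferase from a UAS reporter driven by GAL4-VP16 transactivation; 0% = DMSO with VP16-transfected cells and 100% = DMSO with cells lacking VP16; higher means less reporter light so more repression of VP16 activity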
- condition_description: CHO-S GAL4-VP16 luciferase reporter, at 3.98 µM
The other results are listed elsewhere or left out. Calls of active or inactive are those of the source.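 The calls were made as follows: active = mean inhibition above a cutoff equal to the average over all tested compounds plus one standard deviation (cut at about 70% in these data); inactive = the rest.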
Labels: YES for active, NO for inactive

compound	assigned_class
COc1ccc(CC(=O)Nc2nc(-c3ccc(F)c(F)c3)cs2)cc1OC	YES
CCn1c(CNC(=O)c2cc(OC)c(OC)c(OC)c2)cc2cc(C)ccc21	YES
COc1ccccc1-n1nnnc1S(=O)(=O)Cc1ccc(Cl)cc1	NO
Cc1cccc(N2CCN(C(=O)c3cccc(S(=O)(=O)N4CCc5ccccc5C4)c3)CC2C)c1 (stereo not given)	NO
COc1cccc(NS(=O)(=O)c2ccc(-c3coc(C)n3)cc2)c1	NO
